Assay: Inhibition of actin (unknown origin) polymerization incubated for 20 mins in presence of ATP by ELISA analysis
Set-up: species or system Homo sapiens
pIC50: −log10 of the molar value.

SMILES CODE	COMPARATIVE SIGN	pIC50
CCN1C(=O)SC[C@H]1[C@@]1(OC)C[C@H]2C[C@@H](CC[C@H](C)/C=C\C=C\CC/C(C)=C\C(=O)O2)O1	<	5.00
CO[C@]1([C@@H]2CSC(=O)N2Cc2ccccc2)C[C@H]2C[C@@H](CC[C@H](C)/C=C\C=C\CC/C(C)=C\C(=O)O2)O1	=	6.48
CO[C@]1([C@@H]2CSC(=O)N2C2CCCC2)C[C@H]2C[C@@H](CC[C@H](C)/C=C\C=C\CC/C(C)=C\C(=O)O2)O1	=	5.98
C/C1=C/C(=O)O[C@@H]2C[C@@H](CC[C@H](C)/C=C\C=C\CC1)O[C@@](OCCc1ccccc1)([C@@H]1CSC(=O)N1)C2	=	6.74
C/C1=C/C(=O)O[C@@H]2C[C@@H](CC[C@H](C)/C=C\C=C\CC1)O[C@@](OC(=O)c1ccccc1)([C@@H]1CSC(=O)N1)C2	=	6.33
CO[C@]1([C@@H]2CSC(=O)N2C(=O)c2ccccc2)C[C@H]2C[C@@H](CC[C@H](C)/C=C\C=C\CC/C(C)=C\C(=O)O2)O1	=	6.08

* * *

Recorded pIC50 by entry
Assay: Inhibition of actin (unknown origin) polymerization incubated for 20 mins in presence of ATP by ELISA analysis
Design: species or system Homo sapiens
pIC50: −log10 of the molar value.
VALUE TYPE: pIC50

SMILES CODE	COMPARATIVE SIGN	MEASURED RESULT
COc1ccc(CC(=O)N2C(=O)SC[C@H]2[C@@]2(OC)C[C@H]3C[C@@H](CC[C@H](C)/C=C\C=C\CC/C(C)=C\C(=O)O3)O2)cc1	<	5.00
C/C1=C/C(=O)O[C@@H]2C[C@@H](CC[C@H](C)/C=C\C=C\CC1)O[C@@](O)([C@@H]1CSC(=O)N1Cc1ccccc1)C2	=	6.35
CO[C@]1([C@@H]2CSC(=O)N2C)C[C@H]2C[C@@H](CC[C@H](C)/C=C\C=C\CC/C(C)=C\C(=O)O2)O1	<	5.00
CO[C@]1([C@@H]2CSC(=O)N2CCCO)C[C@H]2C[C@@H](CC[C@H](C)/C=C\C=C\CC/C(C)=C\C(=O)O2)O1	=	5.07
CO[C@]1([C@@H]2CSC(=O)N2)C[C@H]2C[C@@H](CC[C@H](C)/C=C\C=C\CC/C(C)=C\C(=O)O2)O1	=	5.03
C/C1=C/C(=O)O[C@@H]2C[C@@H](CC[C@H](C)/C=C\C=C\CC1)O[C@@](O)([C@@H]1CSC(=O)N1)C2	=	6.55
C/C1=C/C(=O)O[C@@H]2C[C@@H](CC[C@H](C)/C=C\C=C\CC1)O[C@@](O)([C@@H]1CSC(=O)N1CO)C2	=	6.68
CCN1C(=O)SC[C@H]1[C@@]1(O)C[C@H]2C[C@@H](CC[C@H](C)/C=C\C=C\CC/C(C)=C\C(=O)O2)O1	=	6.55

* * *

System: HepG2
Assay: Anticancer activity against human HepG2 cells assessed as inhibition of cell growth incubated for 72 hrs by SRB assay
Type: functional, cell-based
Settings: HepG2, 72 h
pIC50: −log10 of the molar value.
VALUE TYPE: pIC50

COMPOUND	TARGET	VALUE TYPE	MEASURED RESULT
CC(=O)O[C@H]1C[C@H]2[C@]3(C)CC[C@H]4C(C)(C)CCC[C@]4(C)[C@H]3C[C@@H](O)[C@]2(C)C2=C1C(O)OC2=O (stereo partly specified)	HepG2	pIC50	5.02
CC(=O)O[C@@H]1C[C@@H]2[C@@]3(C)CCCC(C)(C)[C@@H]3CC[C@@]2(C)[C@@H]2CC=C3C(=O)OCC3[C@@]12C (stereo partly specified)	HepG2	pIC50	4.81
CC(=O)O[C@H]1C[C@H]2[C@]3(C)CC[C@H]4C(C)(C)CCC[C@]4(C)[C@H]3C[C@@H](O)[C@]2(C)C2=C1COC2=O	HepG2	pIC50	4.72
CO[C@H]1NC(=O)C2=C1[C@H](O)C[C@H]1[C@]3(C)CC[C@H]4C(C)(C)CCC[C@]4(C)[C@H]3C[C@@H](OC(C)=O)[C@]21C	HepG2	pIC50	4.60
CC(=O)O[C@@H]1C[C@@H]2[C@@]3(C)CCCC(C)(C)[C@@H]3CC[C@@]2(C)[C@@H]2C[C@H](O)C3=C([C@H](O)OC3=O)[C@@]12C	HepG2	pIC50	4.66
CO[C@H]1C[C@H]2[C@]3(C)CC[C@H]4C(C)(C)CCC[C@]4(C)[C@H]3C[C@@H](OC(C)=O)[C@]2(C)C2=C1[C@@H](O)OC2=O	HepG2	pIC50	4.37
